Values from the supplement of paper PMC7125110

B1: glmS ribozyme (parent)
chain: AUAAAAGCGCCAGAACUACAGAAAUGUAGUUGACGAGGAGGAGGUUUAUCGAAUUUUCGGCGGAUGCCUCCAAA

Variants of: B1
assay_remarks: kcat; higher = faster cleavage; RNA array
condition_description: with glucosamine-6-phosphate
This sample holds only a part of the variants without activity.
# label = yes (1) if kcat >= 0.0003 s⁻¹ else no (0)

The following variants have reported results that may help.
>>> label_value("A42G A64G")
"yes (1)"
>>> label_value("C10U U47C")
"no (0)"
>>> label_value("A36C G66U")
"no (0)"
>>> label_value("U31G")
"yes (1)"
>>> label_value("C50U G63U")
"no (0)"
>>> label_value("G29A C70A")
"no (0)"

Query: Determine whether measured kcat meets or exceeds 0.0003 s⁻¹ for G29U U54C
Response: yes (1)

Query: Determine whether measured kcat meets or exceeds 0.0003 s⁻¹ for A1U U2G A3G A5U
Response: yes (1)
